B1: TPR t1 (parent)
chain: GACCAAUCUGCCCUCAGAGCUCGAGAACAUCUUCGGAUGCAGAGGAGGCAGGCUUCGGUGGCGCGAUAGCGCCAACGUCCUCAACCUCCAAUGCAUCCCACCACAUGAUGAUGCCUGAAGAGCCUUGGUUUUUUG

- Variants of: B1
- test method notes: polymerase ribozyme fitness, log enrichment relative to wild type (log ratio); higher = more active; in vitro selection for triplet polymerase activity
readout kind: polymerase ribozyme fitness (log ratio)
Output: the number by itself.

Field: example entries. Status: answers known.
GACCAAGCUGCCCUCAGAGCUCGAGAACAUCUUCGGAUGCAGAGGAGGCAGGCUUCGCUGGCGCGAUAGCGCCAACGUCCUCAACCUCCAAUGCAUCCCACCACAAGAUGAUGCCUGAAGAGCCUUGAUUUUUUG [U7G G58C U106A G128A]
-0.568
GACCAAUCUGCCUUCAGUGCUCGAGAACAUCUUCGGAUGCACAGGAGGCAGGCUUCGGUGGCGCGAUAGCGCCAACGUCCUCAACCACCAAUGCAUCCCACCACAUGAUGAUGCCUGAAGAGCUUUGGUUUUUUG [C13U A18U G42C U87A C124U]
0.0751
GACCUAUCUGCCCUCAGAGCUCGAGAACAUCUUCGGAUGCAGAGGAGGCAGGCUUCGGUGGCGUGAUAGCGCCAACGUCCUCAACCUCCAAUGCAUCCCACCACAUGAUGAUGCCUGAAGAGCCUUGGUUUUUUG [A5U C64U]
-0.49
GACCAAUCUGGCCUCAGAGCUCGAGAACAUCUUCGGAUGCAGAGGAGGCAGGCUUCGGUGGCACGAUAGCGCCAACGUCCUCAACCUCCAAUGCAUCCCACCACAUGAUGAUGCCUGAAGAGCCUUGGUUUUUUG [C11G G63A]
-0.354
GACCAAUCUGCCCUCAGAGCUCGAGAACAUCUUCGGAUGCAGAGGAGGAAGGCUUCGGUGGCGCGAUAGCGCCCACGUCCUCAACCUCCAAUGUAUCCCACCACAUGAUGAUGCCAGAAGAGCCUUGGUUUUUUG [C49A A74C C94U U116A]
-3.09

Req: Give the reported polymerase ribozyme fitness (log ratio) for this variant. GACCAAUCUGCCCUCAGAGCUCGCGAACAUCUUCGGCUGCAGAGGAGGCAGGCUUCGGUGGCGCGAUAGCGCCAACGUCCUCAACCUCCAAUGCAUCCCACCACAUGAUGAUGCCUGAAGUGCCUUGGUUUUUUG [A24C A37C A121U]
Resp: -6.59

Req: Give the reported polymerase ribozyme fitness (log ratio) for this variant. GACCAAUCGGCCCUCAGAGCUCGAGAACAUCUUCUGAUGCAGAGGAGGCAGGCUUCGGUGGCGCGAUAGCGCCAACGUCCUCAACCUCCAAUGCAUCCCACCACAUGAUGAUGCCUGAAGAGCCUUGGUUUUUUG [U9G G35U]
Resp: -4.99

Req: Give the reported polymerase ribozyme fitness (log ratio) for this variant. GACCAAUCUGCCCUCAGAGCUCGAGAACAUCUUCGGAUGCAGAGGAGGCAGGCUUCGGUGGCGCGAUAGCGCCAACGUCCUCAAGCUCCAAUGCAUCCCACCACAUGAUGAUCACUGAAGAGCCUUGGUUUCUUG [C85G G113C C114A U132C]
Resp: -6.29
